Task for the reader: assign each of the following compounds its reported melting point.

compound | melting point
COc1ccnc(C(=O)N[C@H]2COC[C@H](CCC(C)C)[C@@H](C3CCCC3)[C@H](C)OC2=O)c1OC(C)=O [compound 91] | 57 to 62 °C
CC(C)C[C@@H]1[C@@H](Cc2ccc(C(F)(F)F)cc2)COC[C@H](N)C(=O)O[C@H]1C.Cl | 163 to 168 °C
C[C@@H]1OC(=O)[C@@H](N)COC[C@H](Cc2ccccc2)[C@H]1COc1ccccc1.Cl | 209 to 214 °C
COc1ccnc(C(=O)N[C@H]2COC[C@H](Cc3ccc(C(F)(F)F)cc3)[C@@H](CC(C)C)[C@H](C)OC2=O)c1O [compound 141] | 66 to 71 °C
CCC[C@H]1COC[C@H](NC(=O)c2nccc(OC)c2O)C(=O)O[C@@H](C)[C@@H]1Cc1ccc(F)cc1 [compound 155] | 43 to 48 °C
COc1ccnc(C(=O)N[C@H]2COC[C@H](CC3CCCCC3)[C@@H](CC3CCCCC3)[C@H](C)OC2=O)c1O [compound 119] | 69 to 75 °C
C[C@@H]1OC(=O)[C@@H](N)COC[C@H](CCc2ccccc2)[C@H]1CCc1ccccc1.Cl | 184 °C (dec.)
COc1ccnc(C(=O)N[C@H]2COC[C@H](Cc3ccc(Cl)cc3)[C@@H](Cc3ccc(OC(F)(F)F)cc3)[C@H](C)OC2=O)c1O [compound 137] | 64 to 68 °C
COc1ccnc(C(=O)N[C@H]2COC[C@H](Cc3ccccc3)[C@@H](c3ccccc3)[C@H](C)OC2=O)c1OCOC(=O)C(C)C [compound 52] | 69 to 73 °C
CCC[C@H]1COC[C@H](NC(=O)c2nccc(OC)c2OC(C)=O)C(=O)O[C@@H](C)[C@@H]1Cc1ccc(F)cc1 [compound 107] | 57 to 62 °C

For every record below, what is its melting point?
1. COc1ccnc(C(=O)N[C@H]2COC[C@H](Cc3ccc(C(F)(F)F)cc3)[C@@H](CC(C)C)[C@H](C)OC2=O)c1OCOC(C)=O [compound 71]
2. COc1ccnc(C(=O)N[C@H]2COC[C@H](CCCc3ccccc3)[C@@H](CCc3ccccc3)[C@H](C)OC2=O)c1O [compound 139]

["54 to 59 °C", "48 to 52 °C"]

For every record below, what is its melting point?
1. C[C@@H]1OC(=O)[C@@H](NC(=O)OC(C)(C)C)COC[C@H](CC2CCCCC2)[C@H]1CC1CCCCC1 [compound 206]
2. C=C[C@@H]1[C@@H](Cc2ccccc2)COC[C@H](NC(=O)OC(C)(C)C)C(=O)O[C@H]1C [compound 205]

1. 44 to 50 °C
2. 134 to 138 °C
